Data origin, for the record: PubChem BioAssay AID431

Assignment: determine reported cytotoxicity for the given molecules.
Assay: viability loss of HPDE-C7K cells – cell-based, fluorescence, HTS, primary screen (AID 431);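 further: 0% = DMSO solvent wells and 100% = doxorubicin-treated wells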
Conditions: HPDE-C7K KRASV12 cells, Alamar Blue viability, 48 h; at 10 µM; stronger effect = higher value
Screen size: about 63,000 compounds; about 1,100 (1.7%) were called active. The sample as a whole holds a higher share of actives than the screen did. Measured potencies and affinities stand elsewhere.
Record the value in %, omitting the unit from your answer.

Incoming: GET /values?readout=cytotoxicity&item= CN(c1ccc(O)cc1)c1nc(-c2ccccc2)cs1
Outgoing: 4.5

Incoming: For COc1cccc(-c2nc(NCCN3CCOCC3)c3ccccc3n2)c1O then?
Outgoing: 53.1

Incoming: For Cc1onc(-c2ccccc2)c1C(=O)Nc1cc(C(F)(F)F)ccc1N1CCOCC1 then?
Outgoing: 60.3

Incoming: For COc1ccc(-c2nnc(SCC(=O)N3CCCCC3)o2)cc1OC then?
Outgoing: -0.7

Incoming: For O=C(O)Cn1cccc1C(=O)c1ccccc1 then?
Outgoing: -0.1

Incoming: For O=P(O)(CCc1ccccc1)CN1CCCCC1 then?
Outgoing: 2.1

Incoming: For COc1cc(-c2csc(C)n2)ccc1O then?
Outgoing: -3.1

Incoming: For Fc1ccccc1-c1nc(NCCCN2CCOCC2)c2ccccc2n1 then?
Outgoing: 11.7

Incoming: For CC(C)(C)OC(=O)NCCc1nnc(SCC(=O)c2ccc(Cl)cc2)o1 then?
Outgoing: 3.8

Incoming: For CCCn1c(=O)c2ccccc2n2c(SCCOc3ccc(OC)cc3)nnc12 then?
Outgoing: -17.4

Incoming: For Oc1ccccc1-c1nc(NCCN2CCOCC2)c2ccccc2n1 then?
Outgoing: 59.3

Incoming: For c1ccc(-c2nc(NCCCN3CCOCC3)c3ccccc3n2)cc1 then?
Outgoing: 5.9

Incoming: For O=C(Nc1cc(C(F)(F)F)ccc1N1CCOCC1)c1ccco1 then?
Outgoing: -2.4

Incoming: For CCNc1nc(SCC(=O)OC)nc(N2CCOCC2)n1 then?
Outgoing: -13.2

Incoming: For O=C1NCCN1C(=O)C12CC3CC(CC(C3)C1)C2 then?
Outgoing: -2.7

Incoming: For Cc1nc2c(c(=O)n1CCC1=CCCCC1)c1nc3ccccc3nc1n2/N=C/c1ccco1 then?
Outgoing: 63.1

Incoming: For O=C1NCCCC2c3c(cc(Br)c(O)c3Br)OC12N1CCOCC1 (stereo not given) then?
Outgoing: -3.5

Incoming: For Oc1ccc(-c2nc(-c3ccc(O)c(O)c3)cs2)cc1 then?
Outgoing: 79.5

Incoming: For CN1C(=O)CSc2ccc(NC(=O)N3CCC(N4CCCCC4)CC3)cc21 then?
Outgoing: -15.1

Incoming: For Cc1ccc2c(c1)CC1(CN2C)C(=O)OC2(CCCCC2)OC1=O then?
Outgoing: -4.6

Incoming: For CCc1ccc(NC(=O)C2CC=CCC2C(=O)O)cc1 (stereo not given) then?
Outgoing: -3.7

Incoming: For COc1ccc(-c2ccc(SCC(=O)N3CCOCC3)nn2)cc1 then?
Outgoing: -3.5

Incoming: For CC(Oc1ccccc1)C(=O)N1CCCc2ccccc21 (stereo not given) then?
Outgoing: -9.7

Incoming: For CCOC(=O)Cc1csc(NC(=O)CSc2nnc(-c3ccc(C)cc3)o2)n1 then?
Outgoing: -11.9

Incoming: For Cc1csc(NC(=O)c2nc(-c3ccccc3)n(-c3ccccc3)n2)n1 then?
Outgoing: -19.1

Incoming: For N#Cc1cc2c(nc1SCC(=O)Nc1sc3c(c1C#N)CCC3)CCCCC2 then?
Outgoing: 23

Incoming: For Cn1c(=O)c2c(nc(NCCCN3CCOCC3)n2Cc2ccc(Cl)cc2)n(C)c1=O then?
Outgoing: -3.3

Incoming: For COc1ccc(CCNC(=O)CSc2nc(N)c3c(C)c(C)oc3n2)cc1OC then?
Outgoing: 4.3

Incoming: For CCOC(=O)C1CCN(c2cc(=O)n(Cc3ccc(F)cc3)c(=O)[nH]2)CC1 then?
Outgoing: -12.8

Incoming: For O=c1c2c3nc4ccccc4nc3n(/N=C/c3ccco3)c2ncn1CCC1=CCCCC1 then?
Outgoing: 30
